- procedure details: Shake-flask determination of maximum solubility of DIM
- Type: physicochemical
- settings: 37 °C, thermodynamic from solid; in water; read-out: maximal solubility
parameter measured: solubility (µg/mL)
State the answer as a number, implicitly in µg/mL.

Report measured solubility; entry is c1ccc2c(Cc3c[nH]c4ccccc34)c[nH]c2c1 [DIM, 3,3′-diindolylmethane]
0.7

====

- procedure details: Single dose human oral bioavailability study (plasma DIM by LC-MS/MS)
- Format: in vivo
- settings: both sexes, healthy humans, single oral dose 300 mg DIM, averaged
parameter measured: half-life

Indicate its recorded half-life; the compound in question is c1ccc2c(Cc3c[nH]c4ccccc34)c[nH]c2c1 [DIM, 3,3′-diindolylmethane]
2.2 h

====

- procedure details: Intra-individual comparison of DIM plasma levels, one adult subject
- Type: in vivo
- settings: human, time 2 hr, same adult subject, 300 mg oral, read-out: Plasma level of DIM
parameter measured: concentration at 2 h

Give the value of concentration at 2 h reported for the following: c1ccc2c(Cc3c[nH]c4ccccc34)c[nH]c2c1 [DIM, 3,3′-diindolylmethane]
6.8 ng/mL

====

- procedure details: Intra-individual comparison of DIM plasma levels, one adult subject
- Format: in vivo
- settings: human, time 3 hr, same adult subject, 300 mg oral, read-out: Plasma level of DIM
parameter measured: concentration at 3 h (ng/mL)
Express it in ng/mL; write the number only.

Supply measured concentration at 3 h of c1ccc2c(Cc3c[nH]c4ccccc34)c[nH]c2c1 in your reply.
4.7

====

- procedure details: Experimental log P of DIM (octanol / aqueous shake-flask, HPLC)
- Assay type: physicochemical
- settings: octanol / aqueous media (separate shake-flask solubilities); from octanol and aqueous shake-flask results; read-out: Experimental log P Determination
parameter measured: logP
Keep the answer to the number alone.

Output logP of c1ccc2c(Cc3c[nH]c4ccccc34)c[nH]c2c1 [DIM, 3,3′-diindolylmethane]
3.58

====

- procedure details: Single dose human oral bioavailability study (plasma DIM by LC-MS/MS)
- Type: in vivo
- settings: both sexes, healthy humans, single oral dose 300 mg DIM, averaged
parameter measured: Cmax (ng/mL)
Please state the figure in ng/mL; there is no need to write the unit.

Please indicate Cmax recorded for c1ccc2c(Cc3c[nH]c4ccccc34)c[nH]c2c1 [DIM, 3,3′-diindolylmethane]
18.1

====

- procedure details: Single dose human oral bioavailability study (plasma DIM by LC-MS/MS)
- Format: in vivo
- settings: both sexes, healthy humans, single oral dose 300 mg DIM, averaged
parameter measured: Tmax (h)
Hi! Could you send only the number? It should be in h, unit omitted.

Provide Tmax value for the following molecule: c1ccc2c(Cc3c[nH]c4ccccc34)c[nH]c2c1
1.7

====

- procedure details: Intra-individual comparison of DIM plasma levels, one adult subject
- Format: in vivo
- settings: human, time 4 hr, same adult subject, 300 mg oral, read-out: Plasma level of DIM
parameter measured: concentration at 4 h

Look up and report measured concentration at 4 h for this entry: c1ccc2c(Cc3c[nH]c4ccccc34)c[nH]c2c1
2.6 ng/mL

====

- procedure details: Single dose human oral bioavailability study (plasma DIM by LC-MS/MS)
- Format: in vivo
- settings: both sexes, time 3 hour, 300 mg oral, read-out: averaged plasma level of DIM
parameter measured: concentration at 3 h
Provide the measurement as a number trailed by its unit.

Note down concentration at 3 h recorded for c1ccc2c(Cc3c[nH]c4ccccc34)c[nH]c2c1
10.6 ng/mL

====

- procedure details: Single dose human oral bioavailability study (plasma DIM by LC-MS/MS)
- Format: in vivo
- settings: both sexes, time 4 hour, 300 mg oral, read-out: averaged plasma level of DIM
- Experimental: Study Design: Single Center, Single-Blind, Single Dose, Oral Bioavailability Study, with Subject Crossover. […] The concentrations of DIM in human plasma samples were determined by a validated high-performance liquid chromatography with tandem mass spectrometry (LC-MS/MS) method. […] The transitions at 129.9>76.8 and 237.1>161.1 were monitored for DIM and zileuton, respectively. […]
parameter measured: concentration at 4 h

Annotate the compound c1ccc2c(Cc3c[nH]c4ccccc34)c[nH]c2c1 [DIM, 3,3′-diindolylmethane] with its measured concentration at 4 h.
10 ng/mL

====

- procedure details: Intra-individual comparison of DIM plasma levels, one adult subject
- Assay type: in vivo
- settings: human, time 1 hr, same adult subject, 300 mg oral, read-out: Plasma level of DIM
parameter measured: concentration at 1 h

Consider the molecule c1ccc2c(Cc3c[nH]c4ccccc34)c[nH]c2c1 [DIM, 3,3′-diindolylmethane] . State its measured concentration at 1 h.
4.5 ng/mL

====

- procedure details: Intra-individual comparison of DIM plasma levels, one adult subject
- Format: in vivo
- settings: human, time 0 hr, same adult subject, 300 mg oral, read-out: Plasma level of DIM
parameter measured: concentration at 0 h (ng/mL)
A number alone suffices; assume ng/mL.

Quote concentration at 0 h reported for c1ccc2c(Cc3c[nH]c4ccccc34)c[nH]c2c1 please.
0

====

- procedure details: Single dose human oral bioavailability study (plasma DIM by LC-MS/MS)
- Assay type: in vivo
- settings: both sexes, healthy humans, single oral dose 300 mg DIM, averaged
parameter measured: AUC(0-inf) (ng·h/mL)
State just the number; it will be interpreted in ng·h/mL.

Give reported AUC(0-inf) value for c1ccc2c(Cc3c[nH]c4ccccc34)c[nH]c2c1 [DIM, 3,3′-diindolylmethane]
98.5
